# Test system: A549
# PROTOCOL TEXT: Antitumor activity against human A549 cells xenografted in zebrafish model assessed as inhibition of cell proliferation incubated for 5 days by fluorescence microscopic analysis
# Type: functional, cell-based
# CONDITION DETAILS: A549, 120 h
OBSERVATION TYPE: IC50 (nM)
// units = nM; emit number, no label

(Q) GET /values?readout=IC50&item= "O=C(CCCCCCC(=O)Nc1nc2c(s1)C[C@@H](NC(=O)c1cccc3ccccc13)CC2)NO"
(A) 1500

----------
IC50 values by entry
# Test system: SGC-7901
# PROTOCOL TEXT: Antiproliferative activity against human SGC-7901 cells
# Assay type: functional, cell-based
The reply should be a number in nM, with the unit left off.

TEST SMILES	UNIT TAG	OBS VALUE
O=C(Cc1ccc(C(=O)NO)cc1)Nc1ccc2ncnc(Nc3ccc(I)cc3)c2c1	nM	2200

(Q) Report IC50 for "O=C(Cc1ccc(C(=O)NO)cc1)Nc1ccc2ncnc(Nc3ccc(Cl)c(F)c3)c2c1" please.
(A) 2200

----------
# Test system: MOLT-4
# PROTOCOL TEXT: Antiproliferative activity against human MOLT-4 cells assessed as inhibition of cell growth incubated for 72 hrs by MTT assay
# Assay type: functional, cell-based
# CONDITION DETAILS: MOLT-4, 72 h
pIC50: −log10 of the molar value.
OBSERVATION TYPE: pIC50

(Q) Which pIC50 value is on record for "Nc1nc2ccc(OC(F)(F)F)cc2s1" ?
(A) < 5.00

----------
# Test system: Ramos
# PROTOCOL TEXT: Cytotoxicity against human Ramos cells assessed as inhibition of cell growth measured after 72 hrs by CellTiter-Glo luminescent viability assay
# Format: functional, cell-based
OBSERVATION TYPE: IC50 (nM)
The response must be a number in nM with no trailing unit.

(Q) What value of IC50 has been recorded for this entry: "CNc1ccc(-c2nc(N3CCOCC3)c3sc(CN(C)c4ncc(C(=O)NO)cn4)cc3n2)cn1"
(A) 0.3

----------
# System: NCI-H1975
# PROTOCOL TEXT: Cytotoxicity against human NCI-H1975 cells assessed as inhibition of cell growth measured after 72 hrs by CellTiter-Glo luminescent viability assay
# Type: functional, cell-based
# CONDITION DETAILS: NCI-H1975, 72 h
OBSERVATION TYPE: pIC50
In plain terms, pIC50 is the concentration in mol/L turned into minus its base-10 logarithm.

(Q) Name the recorded pIC50 for "CNc1ccc(-c2nc(N3CCOCC3)c3sc(CN(C)c4ncc(C(=O)NO)cn4)cc3n2)cn1" .
(A) 9.52

----------
# PROTOCOL TEXT: Metabolic stability in rat liver microsomes assessed as half life
# Format: ADME, Microsome
OBSERVATION TYPE: half-life (h)
Quick note: give the figure in h, leave out the unit.

(Q) So what does the record say about half-life for "Nc1ccn(Cc2ccc(-c3cn(CCCCCCC(=O)NO)nn3)cc2)c(=O)n1" ?
(A) 6.08

----------
# TARGET OR SYSTEM: Histone deacetylase 1 (Homo sapiens)
# Sequence (Q13547 whole entry): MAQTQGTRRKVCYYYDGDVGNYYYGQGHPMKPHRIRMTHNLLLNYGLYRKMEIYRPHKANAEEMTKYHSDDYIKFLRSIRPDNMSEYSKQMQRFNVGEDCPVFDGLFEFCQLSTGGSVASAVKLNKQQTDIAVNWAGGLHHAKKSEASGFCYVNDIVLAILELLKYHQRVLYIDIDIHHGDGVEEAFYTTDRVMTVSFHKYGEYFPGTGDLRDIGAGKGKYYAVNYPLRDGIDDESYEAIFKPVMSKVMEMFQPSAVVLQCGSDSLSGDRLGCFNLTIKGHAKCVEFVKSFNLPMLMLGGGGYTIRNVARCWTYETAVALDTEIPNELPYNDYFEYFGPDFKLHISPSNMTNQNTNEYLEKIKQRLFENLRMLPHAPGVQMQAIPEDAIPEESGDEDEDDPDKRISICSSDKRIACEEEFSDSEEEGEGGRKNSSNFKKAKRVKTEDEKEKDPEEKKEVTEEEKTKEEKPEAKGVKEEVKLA
# PROTOCOL TEXT: Inhibition of HDAC1 (unknown origin) using 6-carboxyfluorescein peptide as substrate incubated for 18 hrs by fluorescence based assay
OBSERVATION TYPE: IC50
Write the quantity with the unit trailing the number.

(Q) Bench note: what IC50 did "COc1cc(/C=C/C(=O)CC(=O)/C=C/c2ccc(/C=C/C(=O)NO)cc2)ccc1O" show?
(A) 0.38 nM
